- tgt: B-Raf kinase (SEQ ID NO: 1) (Homo sapiens)
- Construct: GST (N); purchased Sigma
- Sequence (P15056 416-766): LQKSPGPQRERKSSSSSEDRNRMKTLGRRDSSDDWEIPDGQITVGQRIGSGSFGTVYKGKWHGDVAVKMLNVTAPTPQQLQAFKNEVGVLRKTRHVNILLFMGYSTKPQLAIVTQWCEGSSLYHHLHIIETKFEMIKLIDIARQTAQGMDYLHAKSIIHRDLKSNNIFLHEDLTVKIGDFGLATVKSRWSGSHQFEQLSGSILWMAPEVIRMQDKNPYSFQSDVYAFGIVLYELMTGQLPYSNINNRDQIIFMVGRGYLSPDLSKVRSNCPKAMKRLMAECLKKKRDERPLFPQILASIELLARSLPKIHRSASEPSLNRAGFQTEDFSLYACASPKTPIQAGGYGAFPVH
- experimental protocol: Biochemical assay for B-Raf (coupled pyruvate kinase/lactate dehydrogenase)
- condition parameters: 1 mM ATP; read-out: BRAF (inhibition of biochemical activity, IC50)
property label: IC50

1. Cc1ccc(NC(=O)c2cc(C(F)(F)F)cnn2)cc1-c1nc(OCCO)cc(N2CCOCC2)n1 [Example 43] | 1000 to 10000 nM
2. Cc1ccc(NC(=O)c2cc(C(F)(F)F)cnn2)cc1-c1cncc(N2CCOCC2)n1 [Example 59] | 1000 to 10000 nM
3. Cc1ccc(NC(=O)c2cc(C#N)cnn2)cc1-c1cc(N[C@H](C)CO)nc(N2CCOCC2)c1 [Example 81] | 500 to 1000 nM
4. Cc1ccc(NC(=O)c2cc(C(F)(F)F)cnn2)cc1-c1cc(N[C@H](C)CO)nc(N2CCOCC2)n1 [Example 28] | 100 to 500 nM
5. Cc1ccc(NC(=O)c2cc(C(F)(F)F)cnn2)cc1-c1cnnc(N2CCOCC2)c1 [Example 21] | 500 to 1000 nM
6. Cc1ccc(NC(=O)c2cncc(C(C)C)c2)cc1-c1cc(N[C@H](C)CO)nc(N2CCOCC2)c1 [Example 13] | < 100 nM
7. Cc1ccc(NC(=O)c2cc(C(F)(F)F)cnn2)cc1-c1ccnc(N2C[C@@H]3C[C@H]2CO3)c1 [Example 87] | 100 to 500 nM
8. Cc1ccc(NC(=O)c2ccc(C(F)(F)F)nn2)cc1-c1cc(N[C@H](C)CO)nc(N2CCOCC2)c1 [Example 5] | 1000 to 10000 nM
9. Cc1ccc(NC(=O)c2cnc(C(F)(F)F)nc2)cc1-c1cc(N[C@H](C)CO)nc(N2CCOCC2)c1 [Example 12] | 500 to 1000 nM
10. Cc1ccc(NC(=O)c2cc(Cl)cnn2)cc1-c1cc(N2CCOCC2)ncn1 [Example 74] | 1000 to 10000 nM
11. Cc1ccc(NC(=O)c2cc(C3CC3)cnn2)cc1-c1cc(N2CCOCC2)ncn1 [Example 40] | 100 to 500 nM
12. Cc1ccc(NC(=O)c2cc(C(F)(F)F)cnn2)cc1-c1cncc(N2CCOCC2)c1 [Example 27] | 100 to 500 nM
13. Cc1ccc(NC(=O)c2cnc(C(C)C)nc2)cc1-c1cc(N[C@H](C)CO)nc(N2CCOCC2)c1 [Example 54] | 100 to 500 nM
14. Cc1ccc(NC(=O)c2cc(C(C)(C)F)cnn2)cc1-c1cc(N[C@H](C)CO)nc(N2CCOCC2)c1 [Example 23] | < 100 nM
15. CNc1cc(-c2cc(NC(=O)c3cc(C4CC4)cnn3)ccc2C)cc(N2CCOCC2)n1 [Example 60] | 100 to 500 nM
16. Cc1ccc(NC(=O)c2cc(C(F)(F)F)cnn2)cc1-c1nc(N[C@H](C)CO)cc(N2C[C@H]3C[C@@H]2CO3)n1 [Example 90] | 1000 to 10000 nM
17. Cc1ccc(NC(=O)c2cncc(Cl)n2)cc1-c1cc(N[C@H](C)CO)nc(N2CCOCC2)c1 [Example 9] | 100 to 500 nM
18. Cc1ccc(NC(=O)c2cc(C(C)(F)F)cnn2)cc1-c1cc(OCCO)nc(N2CCOCC2)c1 [Example 63] | < 100 nM
19. CNc1cc(-c2cc(NC(=O)c3cc(C(F)(F)F)cnn3)ccc2C)cc(N2CCOCC2)n1 [Example 61] | < 100 nM
20. Cc1ccc(NC(=O)c2cc(C(F)(F)F)cnn2)cc1-c1ccnc(N2CCOC(C(F)F)C2)c1 (centres unmarked) [Example 26] | 100 to 500 nM
21. Cc1ccc(NC(=O)c2cc(C3CC3)cnn2)cc1-c1cc(N[C@H](C)CO)nc(N2CCOCC2)c1 [Example 70] | < 100 nM
22. Cc1ccc(NC(=O)c2cnc(C3CC3)nc2)cc1-c1cc(N[C@H](C)CO)nc(N2CCOCC2)c1 [Example 17] | 100 to 500 nM
23. Cc1ccc(NC(=O)c2cc(Cl)cnn2)cc1-c1cncc(N2CCOCC2)c1 [Example 77] | 1000 to 10000 nM
24. Cc1ccc(NC(=O)c2cc(Br)cnn2)cc1-c1cc(OCCO)nc(N2CCOCC2)c1 [Example 78] | 100 to 500 nM
25. Cc1ccc(NC(=O)c2cc(C(C)(C)F)cnn2)cc1-c1cc(OCCO)nc(N2CCOCC2)c1 [Example 34] | < 100 nM
26. Cc1ccc(NC(=O)c2cc(C(C)C)cnn2)cc1-c1cncc(N2CCOCC2)c1 [Example 79] | 100 to 500 nM
27. Cc1ccc(NC(=O)c2cc(C3CC3)cnn2)cc1-c1cccc(N2CCOCC2)c1 [Example 46] | 100 to 500 nM
28. CNc1cc(-c2cc(NC(=O)c3cc(C(F)(F)F)cnn3)ccc2C)cc(N2C[C@H]3C[C@@H]2CO3)n1 [Example 92] | 100 to 500 nM
29. Cc1ccc(NC(=O)c2cnc(Br)nc2)cc1-c1cc(N[C@H](C)CO)nc(N2CCOCC2)c1 [Example 69] | 1000 to 10000 nM
